Each entry below carries its recorded IC50.
Molecular target: P236L viral reverse transcriptase (Human immunodeficiency virus type 1 group M subtype B, UniProt P04585, P823L)
Construct: P236L viral reverse transcriptase is obtained by PNAS 90: 4713-4717 (1993); made in house
Experiment: inhibition of viral reverse transcriptase (P236L), cell free assay
Assay type: biochemical
Settings: 30 minutes at 37° C., read-out: IC50 (Table I, P236L)
Method: The utility of the pyrimidine-thioalkyl and alkylether anti-AIDS compounds of Formula IA of this invention can be determined by their ability to inhibit viral reverse transcriptase, an enzyme essential for human immunodeficiency virus replication. […] Inhibition of this enzyme is determined in a cell free assay which measures the level of radioactive precursors incorporated into DNA. […]

compound: COc1cccc(CSc2nc(N)cc(Cl)n2)c1 [Example 39]
measurementUnit: nM
IC50: 160
--
compound: Nc1cc(Cl)nc(SCC2=Cc3ccccc3CC2)n1 [Example 171]
measurementUnit: nM
IC50: 1000
--
compound: Nc1cc(Cl)nc(SCc2cccc3ccccc23)n1 [Example 58]
measurementUnit: nM
IC50: 30
--
compound: Nc1cc(Cl)nc(SCc2ccc3ncccc3c2)n1 [Example 178]
measurementUnit: nM
IC50: 500
--
compound: CCC(CC)c1ccnc(CSc2nc(N)cc(Cl)n2)c1 [Example 151]
measurementUnit: nM
IC50: 60
--
compound: Clc1cc(N2CCOCC2)nc(SCc2ccccc2)n1 [Example 86]
measurementUnit: nM
IC50: 40000
--
compound: Clc1cc(N2CCCCC2)nc(SCc2ccccc2)n1 [Example 84]
measurementUnit: nM
IC50: 10000
--
compound: Nc1cc(Cl)nc(SCc2ccnc3ccccc23)n1 [Example 181]
measurementUnit: nM
IC50: 1000
--
compound: Nc1nc(SCc2ccccc2)nc(Cl)c1C1CCCCC1 [Example 53]
measurementUnit: nM
IC50: 15000
--
compound: Nc1cc(Cl)nc(SCc2ccc(F)c(F)c2)n1 [Example 48]
measurementUnit: nM
IC50: 500
--
compound: Cc1cccc(CSc2nccc(N)n2)c1 [Example 96]
measurementUnit: nM
IC50: 50000
--
compound: Nc1cc(Cl)nc(SCc2cccc([N+](=O)[O-])c2)n1 [Example 45]
measurementUnit: nM
IC50: 110
--
compound: Clc1cc(N2CCCC2)nc(SCc2ccccc2)n1 [Example 85]
measurementUnit: nM
IC50: 30000
--
compound: Nc1cc(Cl)nc(SCc2ccc(Cl)s2)n1 [Example 144]
measurementUnit: nM
IC50: 5000
--
compound: Nc1cc(Cl)nc(SCc2cccc[n+]2[O-])n1 [Example 147]
measurementUnit: nM
IC50: 5000
--
compound: CCOc1ccnc(CSc2nc(N)cc(Cl)n2)c1 [Example 115]
measurementUnit: nM
IC50: 50
--
compound: Nc1cc(Cl)nc(SCc2cccc(C(F)(F)F)c2)n1 [Example 38]
measurementUnit: nM
IC50: 1000
--
compound: COC(=O)c1cccc(CSc2nc(N)cc(Cl)n2)c1 [Example 46]
measurementUnit: nM
IC50: 100
--
compound: CCc1ccnc(CSc2nc(N)cc(Cl)n2)c1 [Example 122]
measurementUnit: nM
IC50: 10
--
compound: N#Cc1ccnc(CSc2nc(N)cc(Cl)n2)c1 [Example 128]
measurementUnit: nM
IC50: 1000
--
compound: Cc1cc(CSc2nc(N)cc(Cl)n2)no1 [Example 174]
measurementUnit: nM
IC50: 500
--
compound: C=C(C)[C@@H]1CC=C(CSc2nc(N)cc(Cl)n2)CC1 [Example 157]
measurementUnit: nM
IC50: 10000
--
compound: Cc1cc(CSc2nc(N)cc(Cl)n2)nc(C)n1 [Example 142]
measurementUnit: nM
IC50: 500
--
compound: Nc1cc(Cl)nc(SCc2cc(Br)ccn2)n1 [Example 119]
measurementUnit: nM
IC50: 40
--
compound: Nc1nc(SCc2cc(Cl)ccn2)nc(Cl)c1F [Example 192]
measurementUnit: nM
IC50: 20
--
compound: CC(C)c1ccnc(CSc2nc(N)cc(Cl)n2)c1 [Example 132]
measurementUnit: nM
IC50: 20
--
compound: Nc1nc(SCc2ccccn2)nc(Cl)c1F [Example 92]
measurementUnit: nM
IC50: 1000
--
compound: Nc1cc(Cl)nc(SCc2cc(Cl)cc(Cl)c2)n1 [Example 50]
measurementUnit: nM
IC50: 330
